Just for reference, paper PMC9611727 is where these values come from.

# assay protocol: Mouse plasma PK after oral gavage
# Type: in vivo
# measurement context: female, CD1, mouse, mice, 10 mg/kg PO
Exercise: for every item that follows, state its recorded half-life.
Value expressed in h; do not type the unit.

Request: Give the reported value of half-life for this record: Cc1nc(N)c2c(-c3cc(F)c(NC(=O)[C@H](O)c4cccc(F)c4)cc3C)cn(C)c2n1
Response: 2

Request: Provide measured half-life value, entry: Cc1nc(N)c2c(-c3ccc(NC(=O)[C@H](O)c4cccc(C(F)(F)F)c4)cc3C)cn(C)c2n1
Response: 3.5

Request: Read off the recorded half-life for Cc1nc(N)c2c(-c3ccc(NC(=O)[C@H](O)c4cccc(F)c4)c(F)c3F)cn(C)c2n1
Response: 2

---

# assay protocol: Plasma protein binding (RED dialysis), human
# Format: in vitro ADME
# measurement context: both sexes, pooled human plasma, pH 7.4
Answer each item with its documented fraction unbound at 4 h, 1 µM.
In your answer, state the number alone without any accompanying words.

Request: Answer with the recorded fraction unbound at 4 h, 1 µM of Cc1nc(N)c2c(-c3ccc(NC(=O)[C@H](O)c4cc(F)cc(C(F)(F)F)c4)cc3C)cn(C)c2n1 [Compound 39] only.
Response: 0.001

Request: Please indicate fraction unbound at 4 h, 1 µM recorded for Cc1nc(N)c2c(-c3ccc(NC(=O)[C@H](O)c4cccc(F)c4)c(F)c3C)cn(C)c2n1 [Compound 65]
Response: 0.004

Request: Return value of fraction unbound at 4 h, 1 µM for input Cc1nc(N)c2c(-c3cc(F)c(NC(=O)[C@H](O)c4cccc(F)c4)cc3C)cn(C)c2n1 [Compound 66] , no commentary.
Response: 0.007

---

Task for the reader: assign each of the following molecules its reported pIC50.
# target entity: PERK (Homo sapiens, UniProt Q9NZJ5)
# Sequence (Q9NZJ5 30-1116): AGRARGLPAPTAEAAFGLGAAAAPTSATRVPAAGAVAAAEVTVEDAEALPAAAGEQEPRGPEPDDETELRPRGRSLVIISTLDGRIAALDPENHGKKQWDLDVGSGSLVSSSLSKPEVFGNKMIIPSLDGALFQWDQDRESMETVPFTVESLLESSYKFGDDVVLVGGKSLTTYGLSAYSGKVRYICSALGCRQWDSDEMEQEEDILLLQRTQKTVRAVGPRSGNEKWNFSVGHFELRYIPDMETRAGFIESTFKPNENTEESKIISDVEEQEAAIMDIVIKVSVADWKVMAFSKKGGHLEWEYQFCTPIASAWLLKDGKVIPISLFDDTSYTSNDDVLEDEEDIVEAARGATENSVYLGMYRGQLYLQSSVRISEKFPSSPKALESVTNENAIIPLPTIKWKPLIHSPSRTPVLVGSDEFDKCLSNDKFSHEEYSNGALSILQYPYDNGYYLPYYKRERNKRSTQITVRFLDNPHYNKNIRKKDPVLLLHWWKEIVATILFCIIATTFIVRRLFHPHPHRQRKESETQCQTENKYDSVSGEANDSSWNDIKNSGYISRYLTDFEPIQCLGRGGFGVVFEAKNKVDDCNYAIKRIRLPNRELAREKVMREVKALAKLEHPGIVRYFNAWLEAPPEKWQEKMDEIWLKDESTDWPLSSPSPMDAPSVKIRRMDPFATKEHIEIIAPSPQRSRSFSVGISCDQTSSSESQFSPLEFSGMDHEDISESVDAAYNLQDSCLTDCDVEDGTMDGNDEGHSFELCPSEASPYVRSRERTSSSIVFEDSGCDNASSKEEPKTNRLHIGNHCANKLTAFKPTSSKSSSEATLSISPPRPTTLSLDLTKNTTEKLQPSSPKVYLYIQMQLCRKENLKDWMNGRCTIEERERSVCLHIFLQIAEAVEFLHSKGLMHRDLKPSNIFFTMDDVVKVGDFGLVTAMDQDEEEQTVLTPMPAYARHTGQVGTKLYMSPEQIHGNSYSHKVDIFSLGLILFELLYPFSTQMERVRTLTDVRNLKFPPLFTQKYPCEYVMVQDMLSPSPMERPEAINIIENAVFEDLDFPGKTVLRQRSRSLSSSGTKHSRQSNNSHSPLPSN
# assay protocol: PERK biochemical LanthaScreen TR-FRET assay (GFP-eIF2a phosphorylation)
# measurement context: cell-free TR-FRET, GFP-eIF2a substrate; read-out: PERK IC50
The value called pIC50 is obtained by taking minus log10 of the concentration in mol/L.

Request: # return recorded pIC50 for entry Cc1nc(N)c2c(-c3ccc(NC(=O)[C@H](O)c4cccc(C5CC5)c4)cc3C)cn(C)c2n1
Response: 8.23

Request: In one line, give reported pIC50 of the entry Cc1nc(N)c2c(-c3ccc(NC(=O)[C@H](O)c4cncc(C(F)(F)F)c4)cc3C)cn(C)c2n1 .
Response: 7.72

Request: Answer with the recorded pIC50 of Cc1cc(NC(=O)[C@H](O)c2ccccc2)ccc1-c1cn(C)c2ncnc(N)c12 only.
Response: 8.74

Request: Hello, please tell me recorded pIC50 for this one: Cc1cccc([C@@H](O)C(=O)Nc2ccc(-c3cn(C)c4nc(C)nc(N)c34)c(Cl)c2)c1
Response: 8.39

Request: Give the reported pIC50 for this molecule. Cc1nc(N)c2c(-c3ccc(NC(=O)[C@H](O)c4cccc(F)c4)cc3Cl)cn(C)c2n1
Response: 7.77

Request: For the molecule Cc1nc(N)c2c(-c3ccc(NC(=O)[C@H](O)c4cc(F)cc(F)c4)cc3C)cn(C)c2n1 , give its reported pIC50.
Response: 8.72

Request: Please give the documented pIC50 of Cc1cc(NC(=O)C(F)(F)c2ccccc2)ccc1-c1cn(C)c2ncnc(N)c12
Response: 6.52

Request: Give pIC50 for the following molecule: Cc1nc(N)c2c(-c3ccc(NC(=O)[C@H](O)c4cccc(C(F)(F)F)c4)cc3C)cn(C)c2n1
Response: 8.55

Request: Return value of pIC50 for input C#Cc1cccc([C@@H](O)C(=O)Nc2ccc(-c3cn(C)c4nc(C)nc(N)c34)c(C)c2)c1 , no commentary.
Response: 8.52

Request: Item Cc1nc(N)c2c(-c3ccc(NC(=O)[C@H](O)c4cccc(C(F)F)c4)cc3C)cn(C)c2n1 : provide pIC50
Response: 8.23

Request: Supply reported pIC50 belonging to this molecule: Cc1nc(N)c2c(-c3ccc(NC(=O)[C@H](O)c4cncc(Cl)c4)cc3C)cn(C)c2n1
Response: 7.77

Request: Note pIC50 for the molecule shown: Cc1nc(N)c2c(-c3ccc(NC(=O)[C@H](O)c4cccc(F)c4)cc3OC(F)(F)F)cn(C)c2n1
Response: 7.64

Request: Quick one: give measured pIC50 for Cc1cccc([C@@H](O)C(=O)Nc2ccc(-c3cn(C)c4nc(C)nc(N)c34)c(F)c2)c1
Response: 8.96

Request: Consider the molecule COc1cc(NC(=O)[C@H](O)c2cccc(F)c2)ccc1-c1cn(C)c2nc(C)nc(N)c12 and give its recorded pIC50.
Response: 6.63

Request: State its pIC50: Cc1cc(NC(=O)c2ccccc2)ccc1-c1cn(C)c2ncnc(N)c12
Response: 6.77

Request: Provide pIC50 value for the following molecule: Cc1cc(NC(=O)C(C)(O)c2ccccc2)ccc1-c1cn(C)c2ncnc(N)c12 (stereo not drawn)
Response: 7.25

Request: Using known records, supply pIC50 for CCc1cccc([C@@H](O)C(=O)Nc2ccc(-c3cn(C)c4nc(C)nc(N)c34)c(F)c2)c1
Response: 9.05

Request: Look up and report measured pIC50 for this entry: Cc1nc(N)c2c(-c3ccc(NC(=O)[C@H](O)c4cc(F)cc(C#N)c4)cc3C)cn(C)c2n1
Response: 8.38
